test system: MV4-11; assay: Antiproliferative activity against human MV4-11 cells harboring FLT3 […] mutant assessed as cell viability after 48 hrs by Cell titer Glo assay; format: functional; conditions: MV4-11, 48 h
Recorded measurements of GI50, one per entry
property-name: GI50 (nM)

1) C1=N/C2=N/c3ccc(OCCN4CCCC4)c(c3)COC/C=C/COCc3cccc(c3)C(=C1)N2 (mixture of isomers)
47
2) COc1ccc2cc1COCC=CCOCc1cc(ccc1OCCN1CCCC1)Nc1nccc-2n1 (mixture of isomers)
85
3) CCN(CC)CCOc1ccc2cc1COCC=CCOCc1cccc(c1)-c1ccnc(n1)N2 (mixture of isomers)
37
4) Cc1cnc2nc1-c1cccc(c1)COCC=CCOCc1cc(ccc1OCCN1CCCC1)N2
51
